Readings of IC50 for the listed compounds
biological target: KRAS G12S (Homo sapiens (Human), UniProt P01116+P62937, G12S); test: Ras-Raf disruption/FRET/MOA assay (BRAF RBD, Cyclophilin A); type: biochemical; conditions: read-out: KRAS G12S FRET IC50
Sequence (P01116 other isoform, or with tags, fused parts or gaps G12S): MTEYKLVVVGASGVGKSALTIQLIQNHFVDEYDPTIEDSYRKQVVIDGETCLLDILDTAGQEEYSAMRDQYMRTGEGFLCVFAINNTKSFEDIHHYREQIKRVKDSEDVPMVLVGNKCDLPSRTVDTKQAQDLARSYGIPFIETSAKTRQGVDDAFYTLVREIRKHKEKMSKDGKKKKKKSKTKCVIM
Sequence (P62937 whole entry): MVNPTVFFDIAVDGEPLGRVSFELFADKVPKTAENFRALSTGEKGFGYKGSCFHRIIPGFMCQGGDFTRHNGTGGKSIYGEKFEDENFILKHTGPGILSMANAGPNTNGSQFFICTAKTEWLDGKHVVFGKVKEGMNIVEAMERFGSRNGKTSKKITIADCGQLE
measure: IC50

1. CCn1c(-c2cccnc2[C@H](C)OC)c2c3cc(ccc31)-c1csc(n1)C[C@H](NC(=O)[C@H](C(C)C)N(C)C(=O)[C@H]1[C@@H]3CNC[C@@H]31)C(=O)N1CCC[C@H](N1)C(=O)OCC(C)(C)C2 :: 1 to 10 µM
2. CCn1c(-c2cccnc2[C@H](C)OC)c2c3cc(ccc31)-c1cc(O)cc(c1)C[C@H](NC(=O)[C@H]1C[C@@H]1C)C(=O)N1CCC[C@H](N1)C(=O)OCC(C)(C)C2 :: 1 to 10 µM
3. CCn1c(-c2cccnc2[C@H](C)OC)c2c3cc(ccc31)-c1csc(n1)C[C@H](NC(=O)[C@H](C(C)C)N(C)C(=O)[C@H]1CCN(C(C)=O)C1)C(=O)N1CCC[C@H](N1)C(=O)OCC(C)(C)C2 :: 1 to 10 µM

---

target: KRAS Q61H (Homo sapiens (Human), UniProt P01116+P62937, Q61H); test: Ras-Raf disruption/FRET/MOA assay (BRAF RBD, Cyclophilin A); type: biochemical
Sequence (P01116 other isoform, or with tags, fused parts or gaps Q61H): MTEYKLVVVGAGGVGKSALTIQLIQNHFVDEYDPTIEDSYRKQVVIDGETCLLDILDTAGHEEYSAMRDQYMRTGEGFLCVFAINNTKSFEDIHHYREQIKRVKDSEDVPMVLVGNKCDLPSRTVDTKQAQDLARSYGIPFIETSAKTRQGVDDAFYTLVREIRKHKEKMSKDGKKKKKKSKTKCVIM
Sequence (P62937 whole entry): as the sequence (P62937 whole entry) above
pIC50: −log10 of the molar value.
measure: pIC50

1) CCn1c(-c2cccnc2[C@H](C)OC)c2c3cc(ccc31)-c1csc(n1)C[C@H](NC(=O)[C@H](C(C)C)N(C)C(=O)N1CC[C@@H]1C)C(=O)N1CCC[C@H](N1)C(=O)OCC(C)(C)C2 [Compound A304] :: 7.00 to 8.00
2) CCn1c(-c2cccnc2[C@H](C)OC)c2c3cc(ccc31)-c1cc(O)cc(c1)C[C@H](NC(=O)[C@H](C(C)C)N(C)C(=O)[C@]1(F)CCN(C(=O)OC)C1)C(=O)N1CCC[C@H](N1)C(=O)OCC(C)(C)C2 [Compound A616] :: 7.00 to 8.00
3) CCn1c(-c2cccnc2[C@H](C)OC)c2c3cc(ccc31)-c1cc(O)cc(c1)C[C@H](NC(=O)C(C)C1CCOCC1)C(=O)N1CCC[C@H](N1)C(=O)OCC(C)(C)C2 (stereo partly drawn) [Compound A236] :: 7.00 to 8.00
4) CCn1c(-c2cccnc2[C@H](C)OC)c2c3cc(ccc31)-c1csc(n1)C[C@H](NC(=O)[C@H](C(C)C)N(C)C(=O)N1C[C@@H]3[C@@H](C1)OCCN3C)C(=O)N1CCC[C@H](N1)C(=O)OCC(C)(C)C2 [Compound A472] :: 6.00 to 7.00
5) CCn1c(-c2cccnc2[C@H](C)OC)c2c3cc(ccc31)-c1cc(CF)cc(c1)C[C@H](NC(=O)[C@H](C(C)C)N(C)C(=O)[C@@H]1OCC[C@@H]1c1ccccc1)C(=O)N1CCC[C@H](N1)C(=O)OCC(C)(C)C2 [Compound A509] :: 7.00 to 8.00
6) CCn1c(-c2cc(N3CCN(C)CC3)cnc2[C@H](C)OC)c2c3cc(ccc31)-c1csc(n1)C[C@H](NC(=O)[C@H](C(C)C)N(C)C(=O)[C@@H]1CCCS1(=O)=O)C(=O)N1CCC[C@H](N1)C(=O)OCC(C)(C)C2 [Compound A440] :: 6.00 to 7.00
7) CCn1c(-c2cccnc2[C@H](C)OC)c2c3cc(ccc31)-c1csc(n1)C[C@H](NC(=O)[C@H](C(C)C)N(C)C(=O)N1CCC[C@@H]1CN(C)C)C(=O)N1CCC[C@H](N1)C(=O)OCC(C)(C)C2 [Compound A518] :: 6.00 to 7.00
8) CCn1c(-c2cccnc2[C@H](C)OC)c2c3cc(ccc31)-c1cc(O)cc(c1)C[C@H](NC(=O)[C@H](C(C)C)N(C)C(=O)C13CC(CO1)C3)C(=O)N1CCC[C@H](N1)C(=O)OCC(C)(C)C2 [Compound A406] :: 7.00 to 8.00
9) CCn1c(-c2cccnc2[C@H](C)OC)c2c3cc(ccc31)-c1csc(n1)C[C@H](NC(=O)[C@H](C(C)C)N(C)C(=O)N1CCCC13CN(C)C3)C(=O)N1CCC[C@H](N1)C(=O)OCC(C)(C)C2 [Compound A545] :: 7.00 to 8.00
10) CCn1c(-c2cccnc2[C@H](C)OC)c2c3cc(ccc31)-c1csc(n1)C[C@H](NC(=O)N1CC[C@@H]1COC)C(=O)N1CCC[C@H](N1)C(=O)OCC(C)(C)C2 [Compound A264] :: 6.00 to 7.00
11) CCn1c(-c2cccnc2[C@H](C)OC)c2c3cc(ccc31)-c1csc(n1)C[C@H](NC(=O)[C@H](C(C)C)N(C)C(=O)N1CC([C@@H](C)OC)C1)C(=O)N1CCC[C@H](N1)C(=O)OCC(C)(C)C2 [Compound A278] :: 7.00 to 8.00
12) CCn1c(-c2cccnc2[C@H](C)OC)c2c3cc(ccc31)-c1csc(n1)C[C@H](NC(=O)[C@H](C(C)C)N(C)C(=O)N1CC[C@@H]1CN)C(=O)N1CCC[C@H](N1)C(=O)OCC(C)(C)C2 [Compound A558] :: 7.00 to 8.00
13) CCn1c(-c2cccnc2[C@H](C)OC)c2c3cc(ccc31)-c1cc(O)cc(c1)C[C@H](NC(=O)[C@@H]1[C@H]3C[C@H]3CN1C(C)=O)C(=O)N1CCC[C@H](N1)C(=O)OCC(C)(C)C2 [Compound A207] :: 6.00 to 7.00
14) CCn1c(-c2cccnc2[C@H](C)OC)c2c3cc(ccc31)-c1csc(n1)C[C@H](NC(=O)N1CCOCC1)C(=O)N1CCC[C@H](N1)C(=O)OCC(C)(C)C2 [Compound A270] :: 6.00 to 7.00
15) CCn1c(-c2cc(N3CCN(C)CC3)cnc2[C@H](C)OC)c2c3cc(ccc31)-c1csc(n1)C[C@H](NC(=O)[C@H](C(C)C)N(C)C(=O)N1CC(C3COC3)C1)C(=O)N1CCC[C@H](N1)C(=O)OCC(C)(C)C2 [Compound A465] :: 7.00 to 8.00
16) CCn1c(-c2cccnc2[C@H](C)OC)c2c3cc(ccc31)-c1csc(n1)C[C@H](NC(=O)[C@H](C(C)C)N(C)C(=O)N1C[C@H](N)[C@@H](O)C1)C(=O)N1CCC[C@H](N1)C(=O)OCC(C)(C)C2 [Compound A581] :: 7.00 to 8.00
17) CCn1c(-c2cccnc2[C@H](C)OC)c2c3cc(ccc31)-c1csc(n1)C[C@H](NC(=O)[C@H](C(C)C)N(C)C(=O)N1CC(OC)C1)C(=O)N1CCC[C@H](N1)C(=O)OCC(C)(C)C2 [Compound A354] :: 6.00 to 7.00
18) CCn1c(-c2cccnc2[C@H](C)OC)c2c3cc(ccc31)-c1cc(O)cc(c1)C[C@H](NC(=O)[C@H](C(C)C)N(C)C(=O)[C@@H]1OCC[C@H]1c1ccccc1)C(=O)N1CCC[C@H](N1)C(=O)OCC(C)(C)C2 [Compound A584] :: 7.00 to 8.00
